# System: NCI-H322M lung
# protocol_notes: NCI-60 one-dose screen, 48 h (100 = growth as untreated, 0 = no growth, -100 = all killed)
# experimental_parameters: 10 µM unless noted
Compounds without any hit were thinned out: in the full panel of roughly 83,000, 20% have a hit. The source made the active and inactive calls. Rule for the calls: active = growth percent below 10; inactive = the rest.
Overview of recorded growth for various molecules
metric_name: growth

- COc1ccc(Cl)cc1NC(=O)c1cc2c(n1C)-c1nc(NC(=O)C(C)C)sc1CC2: 99.1% (inactive)
- CCOC(=O)C1CSC(C)(C(=O)OCC)N1 (stereo not given): 104% (inactive)
- c1cncc(-c2nc3ccccc3[nH]2)c1: 101% (inactive)
- CCc1cccc(C)c1NC(=O)c1sc2nc3c(cc2c1N)CCCCC3: 41.4% (inactive)
- COc1ccc(C(=O)Cn2cnc3c(Nc4cc(C(=O)Nc5ccc(N6CCN(CCO)CC6)cc5)ccc4C)ncnc32)cc1: 101% (inactive)
- Cc1nc(-c2ccc(Cl)cc2)ccc1NC(=O)Nc1cccc(C(F)(F)F)c1: 109% (inactive)
- Cc1ccc(-c2cn3cc([N+](=O)[O-])ccc3n2)cc1: 95.9% (inactive)
- COc1ccc(C2CC(c3cc(Cl)c(C)cc3OC)=NN2c2ccc(S(N)(=O)=O)cc2)cc1OC (stereo not given): 104% (inactive)
- COc1cc(-c2nc(N)n(CC(=O)Nc3ccc(/C(C)=N\O)cc3)n2)cc(OC)c1OC: 94.2% (inactive)
- CCCN1C(=O)CSC1=Nc1ccc2cc3ccc(N=C4SCC(=O)N4CCC)cc3nc2c1: 86.4% (inactive)
- CC(/C=C/C=C(\C)[C@H](O)[C@H](C)C(=O)O[C@H]1C[C@H](C)C=C2C=C[C@@]3(C)O[C@@H](O)CC(=O)[C@]3(C)[C@H]21)=C\C=C\C(=O)O: 4.63% (active)
- CCOc1ccc(NC2=C(Cl)C(=O)c3ccccc3C2=O)cc1: 105% (inactive)
- COc1cc(NS(=O)(=O)c2ccc(N)cc2)ncn1: 104% (inactive)
- Cc1cc(C)c(O)c(C(=O)CC(Br)C(=O)O)c1 (stereo not given): 101% (inactive)
- Cc1c(NC(=O)c2sc3nc4c(cc3c2N)CN(Cc2ccccc2)CC4)cccc1C(F)(F)F: 73.1% (inactive)
- CC(=O)N1N=C(CCC(=O)c2nc3ccc([N+](=O)[O-])cc3[nH]2)OC1c1ccc(O)cc1 (stereo not given): 99% (inactive)
- Nc1ncnc2c1ncn2C1OC(COC(c2ccccc2)(c2ccccc2)c2ccccc2)C(O)C1O (stereo not given): 96.5% (inactive)
- O=C(Nc1ccc(Cl)c(Cl)c1)Nc1ccc(Cl)c([N+](=O)[O-])c1: 6.27% (active)
- O=c1nc(N2CCOCC2)oc2c(-c3cccc4ccccc34)cccc12: 90.8% (inactive)
- CC(C)(C)OC(=O)N1CCN(CCn2cc(C(F)(F)F)c3c(Cl)ncnc32)CC1: 96.2% (inactive)
